Attribution: paper PMC4210897

# Tested on: S. iniae
# EXPERIMENT: URDA of non-heated and heated peptides
# Format: cell-based, Streptococcus iniae
# CONDITIONS_USED: non-heated and after 100 °C for 10 min
# Experimental: The antimicrobial activity of the purified peptide was assessed as described previously. […] Plates were incubated for an additional 18–24 h, after which the clearing zone diameters were measured. […]
Where no end group is shown, it is not given here.
VALUE_TYPE: Antimicrobial activity against S. iniae (URDA)

- MKLVKTWLKVLK-NH2 [ofLBP 6A]: significant activity
- RFPKLMMKLLV-NH2 [ofLBP 2A]: significant activity
- RFPGLMMKLLV-NH2 (C-terminus assumed) [ofLBP 1N]: significant activity

----------
# Tested on: S. iniae FP5229
# EXPERIMENT: URDA, MEC
# Type: cell-based, Streptococcus iniae
# CONDITIONS_USED: fish pathogen S. iniae FP5229, Gram +, pH 6.6, 25 °C, triplicate averaged
Where no end group is shown, it is not given here.
VALUE_TYPE: Minimal Effectives Concentration (µg/mL)
Write it as a number; the unit µg/mL goes unstated.

Which Minimal Effectives Concentration is reported for this substance? RFPKLMMKLLV-NH2 [ofLBP 2A] 3.0

Which Minimal Effectives Concentration is reported for this substance? KLVKTWLKVLK [ofLBP 5A] 2.7

Which Minimal Effectives Concentration is reported for this substance? MKLVKTWLKVLK-NH2 [ofLBP 6A] 1.2

Which Minimal Effectives Concentration is reported for this substance? RFPGLMMKLLV-NH2 (C-terminus assumed) [ofLBP 1N] 5.3

----------
# Tested on: S. enterica KCTC2514
# EXPERIMENT: URDA, MEC
# Assay type: cell-based, Salmonella enteric
# CONDITIONS_USED: S. enterica KCTC2514, Gram −, pH 6.6, 37 °C, triplicate averaged
Where no end group is shown, it is not given here.
Task for the reader: assign each of the following substances its reported Minimal Effectives Concentration.
Write it as a number; the unit µg/mL goes unstated.

Which Minimal Effectives Concentration is reported for this substance? RFPGLMMKLLV-NH2 (C-terminus assumed) [ofLBP 1N] 1.2

Which Minimal Effectives Concentration is reported for this substance? RFPKLMMKLLV-NH2 [ofLBP 2A] 1.2

Which Minimal Effectives Concentration is reported for this substance? KLVKTWLKVLK [ofLBP 5A] 3.5

Which Minimal Effectives Concentration is reported for this substance? MKLVKTWLKVLK-NH2 [ofLBP 6A] 2.6

Which Minimal Effectives Concentration is reported for this substance? KLVKTQLKVLK [ofLBP 4N] 250.0

----------
Task for the reader: assign each of the following substances its reported Minimal Effectives Concentration.
# Test system: C. albicans KCTC7965
# EXPERIMENT: URDA, MEC
# Assay type: cell-based, Candida albicans
# CONDITIONS_USED: C. albicans KCTC7965, yeast, pH 6.6, 37 °C, triplicate averaged
Where no end group is shown, it is not given here.
Write it as a number; the unit µg/mL goes unstated.

Requested read-out Minimal Effectives Concentration, target or system C. albicans KCTC7965, entry MKLVKTWLKVLK-NH2 [ofLBP 6A] 2.7

Requested read-out Minimal Effectives Concentration, target or system C. albicans KCTC7965, entry KLVKTQLKVLK [ofLBP 4N] 125.0

Requested read-out Minimal Effectives Concentration, target or system C. albicans KCTC7965, entry KLVKTWLKVLK [ofLBP 5A] 4.0

Requested read-out Minimal Effectives Concentration, target or system C. albicans KCTC7965, entry RFPGLMMKLLV-NH2 (C-terminus assumed) [ofLBP 1N] 5.9

Requested read-out Minimal Effectives Concentration, target or system C. albicans KCTC7965, entry RFPKLMMKLLV-NH2 [ofLBP 2A] 5.6
